Where do the numbers come from? From the supplement of paper PMC9170038.

test system: MS2 coat protein; assay: apparent KD of MS2 coat protein; designed switch direction (-1 OFF switch, 1 ON switch): 1; higher = weaker reporter binding; conditions: input ligand: microRNA oligo, concentration not stated
Please go through the items and note down their apparent KD of MS2 coat protein.
Numbers only, in µM.

sequence_record	measured_on	apparent KD of MS2 coat protein (µM)
AUAAAACAUGAGGAUCACCCAUGUCAACAAAGUCGAGGAUAUGGGCAAAUAAAAUAAGAACCAGAAGGCGAAUAAC [salish99_SS1_r3_003] (Eterna round: R96, puzzle: Same State 1)	MS2 coat protein	0.215
UCGUUCAUCGUAGGAUAUCUAGGAUAUGAACGAGGAUCACCCGAGCAGCAUCAGCGCAUCAGAGGAGAGAAGGACGAUGAUGCG [pwkr ssNG2 2F5 2FMN.4] (Eterna round: R96, puzzle: Same State NG 2)	MS2 coat protein	0.0372
GUUCGUUUGAUAGGAUAUCGCUAUACAUGAGGAUCACCCAUGUUUACCACGCUGGUUUUUCGUACCGAGAAGGAUUCUGAUGAU [JL JR sub007 mod 2] (Eterna round: R96, puzzle: Same State NG 2)	MS2 coat protein	0.0305
GCGGAACAUGAGGAUCACCCAUGUAAAGGGUGUAAAGGAUAUUAUUGGGAGAAGGUAGGGUAAGAAGGUUGCUUGG [JR_SS1_Sub088] (Eterna round: R96, puzzle: Same State 1)	MS2 coat protein	0.432

Let us examine a further case.
Request: Write down the reported apparent KD of MS2 coat protein of AGAACAUGACGAGGAUAUGGAACAUGAGGAUCACCCAUGUAUGUUCCAUAACGCGAAUAAAGAAUCCAGAAGGCGUCGUGAAGA [Mat - Same State NG 2 - JL mod - D32] (Eterna round: R96, puzzle: Same State NG 2) , test system: MS2 coat protein.
Result: 0.116

====

test system: MS2 coat protein; assay: apparent KD of MS2 coat protein; designed switch direction (-1 OFF switch, 1 ON switch): -1; higher = weaker reporter binding; conditions: input ligand: microRNA oligo, concentration not stated
Please note: rule met applies when apparent KD of MS2 coat protein is 0.03 µM or greater, and rule not met applies otherwise.

Known results for sequences:
sequence_record	group_label
UUCGUGUAAGGAUAUACGACCCAUCCCAUUGGGAUGGGCACGUAGAAGGUACAUGAGGAUCACCCAUGUGCUCC [Ceacequa] (Eterna round: R96, puzzle: Exclusion 4)	rule met
AGUACUAUCACGAGAGUGAUAGUACAUUAAACUUGUGAGACAUGAGGAUCACCCAUGUCCUCAUGAGCUCGUCUUAA [Mat - Sensor v2 - var 2 - Mod - D185] (Eterna round: R96, puzzle: Sensor v2, turn-off variant 2)	rule met
UGUUGUUACGUAGGAUAUUGUCAACAGGCAGUAGGAUAUGCGAAAGCAGAAGGACCGCCAACAGGCGAGAAGGACGGGUUAACA [pwkr exNG2 2xF7 2xFMN.3] (Eterna round: R96, puzzle: Exclusion NG 2)	rule met
CUAGGGCACAAUUAAACACCCUAACAUGAGGAUCACCCAUGUCAGGAUAUGUAGGCAAAGACCCUACAGAAGGGACAUGUCCUA [Laus] (Eterna round: R96, puzzle: Exclusion NG 3)	rule not met

Next sequence, please.
Request: Tell me whether apparent KD of MS2 coat protein is at least 0.03 µM here: UACAUGAGGAUCACCCAUGUUUUGUCGUGUAUGGUAUUUAUCUAGGAUAUCAUUUUAGUUAGUUAUGAGAAGGAGAAUAUUAAU [JMF's solution 88] (Eterna round: R96, puzzle: Exclusion NG 3)
Result: rule not met
